Here the recorded growth is given for each entry.
Test system: SK-MEL-28 melanoma
assay method text: NCI-60 one-dose screen, 48 h (100 = growth as untreated, 0 = no growth, -100 = all killed)
cond: 10 µM
Compounds without any hit were thinned out: in the full panel of roughly 83,000, 20% have a hit.

molecule | target or system | growth (%)
COc1cc(-c2nc3ccccc3o2)cc(CN2CCCCC2)c1O | SK-MEL-28 melanoma | 59.5
O=C(Cn1cc(CO)nn1)Nc1nc2ccccc2s1 | SK-MEL-28 melanoma | 106
COc1cc(/C=C2\CCCC3=C2NC(N)=NC3c2cc(OC)c(OC)c(OC)c2)cc(OC)c1OC (stereo not drawn) | SK-MEL-28 melanoma | 24.9
COc1cc2cc(Oc3ccc(NC(=O)Nc4ccc(C(F)(F)F)cc4)cc3)c(C)nc2cc1OC | SK-MEL-28 melanoma | 58.4
COc1ccc(-c2cc(-c3ccccc3)nc(SCCCC(=O)NO)n2)cc1 | SK-MEL-28 melanoma | 19.2
CC1CCCC(C(=O)O)C1C(=O)O (stereo not drawn) | SK-MEL-28 melanoma | 111
S=C(NCc1ccccc1)NCc1ccccc1 | SK-MEL-28 melanoma | 107
COc1ccc(-c2nn(-c3cccc(Cl)c3)cc2/C=C2\NC(=S)N(c3ccc(Cl)cc3)C2=O)cc1 | SK-MEL-28 melanoma | -33.5
NS(=O)(=O)Oc1ccc(-c2ccc3sccc3c2)cc1 | SK-MEL-28 melanoma | 97.6
COc1ccc(C2CC(c3cc(OC)c(OC)c(OC)c3)=NN2)cc1 (stereo not drawn) | SK-MEL-28 melanoma | 113
CC(C)C[C@H](NC(=O)Cn1cccc(CNC(=O)c2ccccc2)c1=O)B(O)O | SK-MEL-28 melanoma | 19.4
C=C/C(C)=C/C[C@]1(C)[C@H](C)[C@@H](OC(=O)CCC)[C@H](O)[C@@]23C(=C[C@H](OC)C[C@@H]12)[C@@H](OC(=O)CCC)O[C@H]3OC(C)=O | SK-MEL-28 melanoma | -49.8
COc1nc2c(c(=O)n1C)CN(c1ccccc1)C(=O)C(C)N2 (stereo not drawn) | SK-MEL-28 melanoma | 113

----------
System: 786-0 renal
assay method text: NCI-60 one-dose screen, 48 h (100 = growth as untreated, 0 = no growth, -100 = all killed)
cond: 10 µM
Description: Cells are grown in 96 well plates and exposed to the test compound for 48 hours. Compounds are tested at a single concentration, which is 10^-5 M for most compounds. The reported endpoint is percent growth (GI% or GIPRCNT), where numbers from 0 - 100% represent growth inhibition, and numbers from -100% - 0 represent cell death. For example, a value of 40 represents 60% growth inhibition. A value of 0 means no net growth occurred over the course of the experiment. […]
This is part of a sample that, as a whole, favours compounds with a hit. Of some 83,000 tested, about 20% had one in any assay.

compound | growth, %
Cc1c[nH]c(=O)n(Cc2nnc(CCC(=O)c3nc4ccccc4[nH]3)o2)c1=O | 28.7
COc1ccc(/C=c2\sc3n(c2=O)C(c2cc(OC)c(OC)c(OC)c2)C=C(c2ccc(OC)c(OC)c2)N=3)cc1OC (centres undefined) | 78.1
COc1cc2c3c(n([C@H]4CCOC4)c(=O)c2cc1OC)-c1cc2c(cc1C3=O)OCO2 | 10.6
CC(=O)C1CCC2C3CC=C4CC(SC(=N)N)CCC4(C)C3CCC12C (centres undefined) | 48

----------
Test system: EKVX NSCLC
assay method text: NCI-60 one-dose screen, 48 h
cond: 10 µM
Compounds without any hit were thinned out: in the full panel of roughly 83,000, 20% have a hit. The source made the active and inactive calls. How the source made its calls: active means growth percent below 10; inactive means the rest.
Labels: y for active, n for inactive

molecule | cat
CC(C)(C)OC(=O)N1CCc2c(sc3ncnc(N/N=C/c4cccc5ccccc45)c23)C1 | y
COc1cc(C2CC(c3ccc4c(c3)OCO4)=NN2c2ccccc2)cc(OC)c1OC (centres undefined) | n
O=C(N/N=C/c1ccc(Cl)cc1)c1ccc(Cc2n[nH]c(=O)c3cccnc23)cc1 | n
COc1cc(/C=C2\CCCC3=C2NC(N)=NC3c2cc(OC)c(OC)c(OC)c2)cc(OC)c1OC (centres undefined) | n

----------
Test system: CCRF-CEM leukemia
assay method text: NCI-60 one-dose screen, 48 h
cond: 10 µM
Compounds without any hit were thinned out: in the full panel of roughly 83,000, 20% have a hit. Activity calls are given as the source filed them. The calls were made as follows: active = growth percent below 10; inactive = the rest.
Possible outcomes: yes (1) = active, no (0) = inactive

molecule | cat
C[C@@H](O)[C@H]1C(=O)N2C(C(=O)O)=C(SC3CN[C@H](C(=O)N(C)C)C3)[C@H](C)[C@H]12 (stereo partly specified) | yes (1)
CC(C)(C)OC(=O)CC(S(=O)(=O)c1ccccc1)S(=O)(=O)c1ccccc1 | no (0)
OCC1OC2C(NC(=S)N2c2ccccc2)C(O)C1O (stereo unspecified) | no (0)
Cc1c2c(nn1C(=O)c1nn(-c3ccc(Cl)cc3)cc1O)-c1ccccc1CC2 | yes (1)
Oc1ccc(/C=N/N=C2c3ccccc3-c3ccccc32)c(O)c1 | no (0)
CC(C)c1ccc(C(C)C(=O)N(CC2=C(C(C)c3ccccn3)c3ccccc3C2)C(C)C)cc1 (stereo unspecified) | no (0)
CCOC(=O)c1cc(C(=O)c2ccc(OC)c(OC)c2)n2ccncc12 | no (0)
c1ccc2c(c1)Cc1ccccc1N2CCN1CCCCC1 | no (0)
CN(C)c1ncnc2c1nnn2C1OC(CO)C(O)C1O (stereo unspecified) | yes (1)
Cc1c(Cl)cccc1NC(=O)CCCl | no (0)
Cc1ccc(C(SCC(N)C(=O)O)(c2ccc(C)cc2)c2ccc(C)cc2)cc1 (stereo unspecified) | yes (1)
COc1cc(C2C(C#N)=C(N)Oc3cc(O)ccc32)cc(OC)c1OC (stereo unspecified) | yes (1)
Cc1cn(-c2cc(F)cc(NC(=O)c3ccc(C)c(Nc4nccc(-c5cccnc5)n4)c3)c2)cn1 | no (0)
O=C1c2c(c(=O)[nH]c3ccccc23)CCN1Cc1ccccc1 | no (0)
COc1ccc(Cl)cc1Nc1nc(C(F)(F)F)ccc1C(=O)N/N=C/c1ccc(Cl)cc1 | yes (1)
Cc1ccc(NCCN(C)CC(C)O)c2c(=O)c3ccc(Cl)cc3sc12 (stereo unspecified) | no (0)
CC(=O)C1CCC2C3CC=C4CC(SC(=N)N)CCC4(C)C3CCC12C (stereo unspecified) | yes (1)
CCC1NC(=O)c2cc(S(N)(=O)=O)c(Cl)cc2N1 (stereo unspecified) | no (0)
COc1ccc(NC(=O)C2CC3C=CC2C3)c([N+](=O)[O-])c1 (stereo unspecified) | no (0)
CN(C)CCCSc1ccccc1NC1=C(Cl)C(=O)C(Nc2ccccc2SCCCN(C)C)=C(Cl)C1=O | yes (1)
O=C1/C=C/[C@@H](O)[C@@H]2C[C@@H](O)C[C@H]2/C=C/CCC[C@H](CCc2ccc(C(F)(F)F)cc2)O1 | yes (1)
COc1cc2cc(Oc3ccc(NC(=O)c4ccccc4)cc3)c(C)nc2cc1OC | no (0)
Cc1ccc2nc(Cl)c(-c3nc4ccccc4o3)cc2c1 | no (0)
Nc1c(Br)cc(Br)c2c1[nH]c(=O)c1ccccc12 | no (0)
O[C@@H]1CO[C@H]2[C@@H]1OC[C@@H]2O | no (0)
COc1ccc(-c2nn(-c3cccc(Cl)c3)cc2-c2cc(-c3cccs3)[nH]c(=S)n2)cc1 | no (0)
COC(=O)C1(O)NC(=C(C#N)C#N)C(C#N)=C1C(=O)c1ccc(OC)c(OC)c1 (stereo unspecified) | no (0)
COc1cc2cc(Oc3ccc(NC(=O)Nc4cccc(C(F)(F)F)c4)cc3)c(C)nc2cc1OC | yes (1)
CCCCC/C=C/C/C=C/CCCCCCCC1=NC(C)(C)CN1C(C)C | yes (1)
CCOS(=O)(=O)c1c(C(C)C)cc(C(C)C)cc1C(C)C | no (0)
CN(C)CCOc1ccc(-c2nc3sccn3c2-c2ccnc(S(C)(=O)=O)n2)cc1 | no (0)
CSc1nc2c(c(=O)n1C)CN(Cc1ccccc1)C(=O)CN2 | no (0)
Cc1c(Cl)cccc1NC(=O)CN1CCOCC1 | no (0)
COc1cc2c(cc1NC(=O)C(Cl)Cl)-c1ccc(NC(=O)C(Cl)Cl)cc1C2 | no (0)
COc1ccc(Cl)cc1Nc1nc(C(F)(F)F)ccc1C(=O)N/N=C/c1cc(OC)c(OC)c(OC)c1 | yes (1)
CCCCC(CC)CN=C(N)NC(N)=NCCCCCCN=C(N)NC(N)=NCC(CC)CCCC (stereo unspecified) | yes (1)

----------
System: HOP-62 NSCLC
assay method text: NCI-60 one-dose screen, 48 h (100 = growth as untreated, 0 = no growth, -100 = all killed)
cond: 10 µM
Compounds without any hit were thinned out: in the full panel of roughly 83,000, 20% have a hit.
Returns one of Satisfied or Not satisfied; Satisfied when growth is >= 80%.

compound | cat
O=C1/C=C/[C@@H](O)[C@@H]2C[C@@H](O)C[C@H]2/C=C/CCC[C@H](CCc2ccc(NC(=S)Nc3ccc4c(c3)C(=O)OC43c4ccc(O)cc4Oc4cc(O)ccc43)cc2)O1 | Not satisfied
N#Cc1cnn(C(=O)c2nn(-c3ccc(Cl)cc3)cc2O)c1N | Not satisfied
CN(C)CCC1(c2ccccc2)CCN(C)C1=O (configuration not stated) | Satisfied
CC[C@@H](C(=O)[C@H](C)[C@H](O)[C@@H](C)[C@H]1O[C@H]([C@@H](CC)C(=O)O)CC[C@H]1C)C1O[C@]2(C=C[C@@H](O)[C@]3(CC[C@@](C)([C@H]4CC[C@](O)(CC)[C@H](C)O4)O3)O2)[C@H](C)C[C@@H]1C (some centres not stated) | Not satisfied
O=C(CSc1nnc(-c2ccc(Cl)cc2)o1)Nc1ccc(C(=O)/C=C/c2ccc(Cl)cc2)cc1 | Satisfied
COc1nc2c(c(=O)n1C)CN(c1ccccc1)C(=O)C(C)N2 (configuration not stated) | Satisfied
CS(=O)(=O)c1nccc(-c2c(-c3cccc(OCCN4CCOCC4)c3)nc3sccn23)n1 | Not satisfied
